Tested on: CRL-7250
experiment: Cytotoxic Profiling of Annotated Libraries Using Quantitative High-Throughput Screening (AID 1296008); also: nearly all actives have a fitted effect of over 60% in size
test-settings: Five cell lines viability, CellTiter-Glo ATP luminescence, 48-72 h
Inconclusive results are not listed. Calls of active or inactive are those of the source. Calls follow the shape of the dose curve; as a rule, active = well fitted inhibition curve with a large enough effect; inconclusive = small, poorly fitted or top-dose-only effect; inactive = flat fitted curve, though single readings scatter.
A correct response names exactly one class from active, inactive

Just curious, what result did Cc1ccccc1-n1c(Cn2cnc3c(N)ncnc32)nc2cccc(C)c2c1=O get here?
active

Just curious, what result did CCCCCC[C@H]1C(=O)O[C@H](C)[C@H](NC(=O)c2cccc(NC=O)c2O)C(=O)O[C@@H](C)[C@@H]1OC(=O)CC(C)C get here?
active

Just curious, what result did O=C1C(I)=CC(=C(c2cc(I)c(O)c(I)c2)c2ccccc2C(=O)O)C=C1I get here?
inactive

Just curious, what result did O=C(O)C(Cl)Cl get here?
inactive

Just curious, what result did C/C=C(/C)C(=O)O[C@H]1C(C)=C2[C@H]([C@@H]1OC(=O)CCCCCCC)[C@@](C)(OC(C)=O)C[C@H](OC(=O)CCC)[C@@]1(O)[C@H]2OC(=O)[C@@]1(C)O get here?
active

Just curious, what result did C[C@@H]1O[C@@H](O[C@@H]2C=C3CC[C@@H]4[C@@H](CC[C@]5(C)[C@H](c6ccc(=O)oc6)CC[C@@]45O)[C@@]3(C)CC2)[C@H](O)[C@H](O)[C@H]1O get here?
active

Just curious, what result did CC(C)N[C@@H]1CCn2c(=O)[nH]c3cccc(c32)[C@@H]1O get here?
inactive

Just curious, what result did CC[C@@]1(O)C(=O)OCc2c1cc1n(c2=O)Cc2cc3ccccc3nc2-1 get here?
active

Just curious, what result did CC(O)CN1CCN(CC(=O)[O-])CCN(CC(=O)[O-])CCN(CC(=O)[O-])CC1.[Gd+3] (centres undefined) get here?
inactive

====

experiment: Quantitative High-Throughput drug screen in 47 multiple myeloma cell lines against the NCATS MIPE library collection: VP6_DJ cell viability assay (AID 1919867); also: nearly all actives have a fitted effect of over 40% in size
test-settings: ATP luminescence, 48 h; series mostly up to 45.8 µM
From the text: PI: Beverly A. Mock Ph.D. Laboratory of Cancer Biology and Genetics, Center for Cancer Research, National Cancer Institute, National Institute of Health, Bethesda, Maryland […] 5; Detector; 425V; Luminescence; Viewlux PerkinElmer. […] 1. […] Briefly, the corresponding myeloma cell lines were screened in 1,536-well plates with 500 cells, 5-uL per well for inhibition of cell viability (assessed by measuring ATP levels with CellTiterGlo). […]
Records with an inconclusive call do not appear. Calls of active or inactive are those of the source. Calls follow the shape of the dose curve; as a rule, active = well fitted cell-killing curve with a large enough effect; inconclusive = small, poorly fitted or top-dose-only effect, or effect the other way; inactive = no such curve, though single readings can be large or run the other way.
A correct response names exactly one class from t = active, f = inactive

Just curious, what result did O=C(NCC1CCOCC1)c1cnc(Nc2ccc(Cl)cc2Cl)nc1C(F)(F)F get here?
t

Just curious, what result did CC(=O)OCC1=C(C(=O)O)N2C(=O)[C@@H](N)[C@@H]2SC1 get here?
f

Just curious, what result did CC(C)[C@H]1C(=O)N[C@H](CO)Cc2c[nH]c3cccc(c23)N1C get here?
f

Just curious, what result did CN(C)[C@@H]1C(=O)C(C(N)=O)=C(O)[C@@]2(O)C(=O)C3=C(O)c4c(O)cccc4[C@@](C)(O)[C@H]3[C@H](O)[C@@H]12 get here?
t

Just curious, what result did CCOC(=O)c1cncn1[C@H](C)c1ccccc1 get here?
f

Just curious, what result did NC1=NC(=O)N2CC12 (centres undefined) get here?
t

Just curious, what result did COC1=C[C@@H]2[C@@H]3Cc4ccc(OC)c(O)c4[C@]2(CCN3C)CC1=O get here?
t

Just curious, what result did CC(C)(O)C(=O)Nc1ccc([N+](=O)[O-])c(C(F)(F)F)c1 get here?
t

Just curious, what result did CC(C)(O)C=CC(=O)[C@](C)(O)[C@H]1[C@H](O)C[C@]2(C)[C@@H]3CC=C4[C@@H](C=C(O)C(=O)C4(C)C)[C@]3(C)C(=O)C[C@@]12C get here?
t
